test system: SW-620; experiment: NCI tumour cell line growth inhibition, 48 h
Activity calls are given as the source filed them. No stated cut-off is given here; in the data, active = GI50 up to about 1.1 µM and inactive = higher.
Outcome codes: TRUE for active, FALSE for inactive

1) CN1/C(=C/C=C/C=C/C=C2C(=O)c3ccccc3C2=O)C(C)(C)c2ccccc21
FALSE
2) O=C(CCc1ccc(O)c(O)c1)NCCc1cc(O)c(O)c(O)c1
FALSE
3) COC(=O)[C@@H]1[C@H]2CC[C@]3(C)[C@@H](OC(C)=O)CC[C@H]3[C@@H]2CC[C@H]1C1(C)SCCS1
FALSE
4) Cc1cccc(C[C@@]2(SCc3ccccc3)C(C)(C)[C@@H]3CC[C@@]2(C)C3)n1
FALSE
5) CCCCCCCCCCCCc1ccc(S(=O)(=O)O)cc1
FALSE
6) c1ccc(C2SCc3nc4cc5ccccc5cc4n32)cc1 (stereo unspecified)
FALSE
7) Nc1nn(CC(O)CO)c(=O)s1 (stereo unspecified)
FALSE
8) CCCCCc1cccc(=O)o1
FALSE
9) O=C(O)CCSC(=O)Nc1cccc2ccccc12
FALSE
10) Cc1nc2c(cc1OCc1ccccc1)C(=O)C1=C(C2=O)C2OC(=O)CC2OC1(C)C (stereo unspecified)
TRUE
11) Cc1nc(C)c(C(=O)NNC(N)=S)cc1C(=O)NNC(N)=S
FALSE
12) C=C(C(=O)OC)c1cc2ccccc2n1S(=O)(=O)c1ccccc1
FALSE
13) CCC1(CC)C(=O)N(C(=O)c2cc(OC)c(OC)c(OC)c2)N(C(=O)c2cc(OC)c(OC)c(OC)c2)C1=O
FALSE
14) CC(C)C(Sc1nc(N)nc2nc[nH]c12)C(=O)O (stereo unspecified)
FALSE
15) CC(=O)O[C@H]1C[C@]2(O)[C@@H]3CC[C@@H]4C[C@@H](O)CC[C@]4(C)[C@H]3CC[C@]2(C)[C@H]1C1=CC(=O)OC1
TRUE
16) COc1ccc([C@@]23OC[C@@H]4[C@@H](OC[C@@H]42)c2cc(OC)c(OC)cc23)cc1OC
FALSE
